- Measured On: TAAR1 (Mus musculus, UniProt Q923Y8)
- Assay Notes: TAAR1 radioligand binding, membranes of stably transfected HEK293 cells (mouse)
- Conditions Used: mouse/rat; cell not marked 'rat'; radioligand [3H]-rac-2-(1,2,3,4-tetrahydro-1-naphthyl)-2-imidazoline, 4° C.; read-out: Ki (μM) mouse/rat
Hi! Just check whether Ki is below 0.001 µM. Below gives Criterion met, equal or above gives Criterion not met.

Request: Threshold test, Ki < 0.001 µM: CCC(C[C@H]1COC(N)=N1)c1ccc(F)c(F)c1 (stereo partly drawn) [Example 211]
Response: Criterion not met

====

Measured Ki, listed per entry for reference.
- Measured On: TAAR1 (Mus musculus, UniProt Q923Y8)
- Assay Notes: TAAR1 radioligand binding, membranes of stably transfected HEK293 cells (mouse)
- Conditions Used: mouse/rat; cell not marked 'rat'; radioligand [3H]-rac-2-(1,2,3,4-tetrahydro-1-naphthyl)-2-imidazoline, 4° C.; read-out: Ki (μM) mouse/rat
Unit µM implied. Number only.

Some entries whose results are on file:
Molecule	Measurement Unit	Ki
NC1=N[C@@H](CCc2ccccc2)CO1 [Example 80 (S)]	µM	0.0008
NC1=N[C@@H](COc2ccc(F)cc2)CO1 [Example 213]	µM	0.003
NC1=N[C@@H](c2ccc(Br)cc2F)CO1 [Example 367]	µM	0.001

Request: What Ki appears in the records for this molecule with TAAR1 (Mus musculus, UniProt Q923Y8)? C[C@]1(CCc2ccccc2Cl)COC(N)=N1 [Example 228]
Response: 0.004

Request: Please give the result for Cc1ccccc1CC[C@H]1COC(N)=N1 [Example 114] too.
Response: 0.0021

Request: Please give the result for NC1=N[C@@H](CCc2cc(C(F)(F)F)ccc2C(F)(F)F)CO1 [Example 160] too.
Response: 0.0028

Request: Please give the result for NC1=N[C@@H](CCc2cccc(Br)c2)CO1 [Example 143] too.
Response: 0.0007

Request: Please give the result for NC1=N[C@@H](CCc2ccc(F)c(F)c2)CO1 [Example 89] too.
Response: 0.0013

Request: Please give the result for NC1=N[C@@H](CCc2ccc(F)cc2)CO1 [Example 85] too.
Response: 0.0011

Request: Please give the result for NC1=N[C@@H](c2cc(Cl)c(Cl)cc2C(F)(F)F)CO1 [Example 242] too.
Response: 0.0072

====

Measured pKi, listed per entry for reference.
- Measured On: TAAR1 (Mus musculus)
- Assay Notes: TAAR1 radioligand binding, membranes of stably transfected HEK293 cells (mouse)
Please treat pKi as minus the base-10 logarithm of the molar concentration.

Some entries whose results are on file:
Compound	pKi
NC1=NC(c2cccc3ccccc23)CO1 (racemic) [Example 34]	8.96
NC1=NC(c2ccc(Br)cc2)CO1 (racemic) [Example 20]	9.05

Request: What pKi appears in the records for this compound with TAAR1 (Mus musculus)? NC1=NC(c2ccc(Cl)cc2C2CC2)CO1 (racemic) [Example 359]
Response: 8.68

Request: Please give the result for NC1=NC(c2ccc(OC(F)(F)F)cc2)CO1 (racemic) [Example 12] too.
Response: 8.10

====

- Measured On: TAAR1 (Mus musculus)
- Assay Notes: TAAR1 radioligand binding, membranes of stably transfected HEK293 cells (mouse)
- Protocol: For the construction of expression plasmids the coding sequences of human, rat and mouse TAAR 1 were amplified from genomic DNA essentially as described by Lindemann et al.. […] Cells at confluence were rinsed with ice-cold phosphate buffered saline without Ca^2+ and Mg^2+ containing 10 mM EDTA and pelleted by centrifugation at 1000 rpm for 5 min at 4° C. […] Protein concentration was determined by the method of Pierce (Rockford, Ill.). […]
Recorded Metric: Ki (nM)
Unit nM implied. Number only.

Compound	Measurement Unit	Ki
Cc1ccccc1C1COC(N)=N1 (racemic) [Example 8]	nM	5.8
NC1=NC(c2ccc(Cl)cc2)CO1 (racemic) [Example 5]	nM	2.1

Now look at this one.
Request: I have this compound here, Cc1cc(C2(C)COC(N)=N2)ccc1Cl (racemic) [Example 263] , and I need its recorded Ki.
Response: 2.3
